Catalogue of compounds with associated growth at 10 µM
System: U-251
Test Details: Cytotoxicity against human U251 cells assessed as cell growth at 10^-5 M after 48 hrs by SRB assay
Type: functional
Condition Info: U-251, 48 h, read-out: Activity
Test Readout: growth at 10 µM (%)

[[record]]
test_smiles = "C=CCn1c(C)nc2cc(Nc3nc(Nc4ccc5nc(C)n(CC=C)c5c4)nc4ccccc34)ccc21"
test_readout = "growth at 10 µM"
reading = 94.4

[[record]]
test_smiles = "C=CCn1c(C)nc2ccc(Nc3nc(NCCO)nc4ccccc34)cc21"
test_readout = "growth at 10 µM"
reading = 98.5

[[record]]
test_smiles = "C=CCn1c(C)nc2ccc(Nc3nc(Sc4ccc(N)cc4)nc4ccccc34)cc21"
test_readout = "growth at 10 µM"
reading = 91.3


---

Test system: SK-OV-3
Test Details: Cytotoxicity against human SKOV3 cells assessed as cell growth at 10^-5 M after 48 hrs by SRB assay
Format: functional
Condition Info: SK-OV-3, 48 h, read-out: Activity
Test Readout: growth at 10 µM (%)

[[record]]
test_smiles = "C=CCn1c(C)nc2cc(Nc3nc(NCCO)nc4ccccc34)ccc21"
test_readout = "growth at 10 µM"
reading = 103

[[record]]
test_smiles = "C=CCn1c(C)nc2ccc(Nc3nc(NCCO)nc4ccccc34)cc21"
test_readout = "growth at 10 µM"
reading = 109

[[record]]
test_smiles = "C=CCn1c(C)nc2ccc(Nc3nc(Nc4ccc5nc(C)n(CC=C)c5c4)c4ccccc4n3)cc21"
test_readout = "growth at 10 µM"
reading = -100

[[record]]
test_smiles = "C=CCn1c(C)nc2cc(Nc3nc(Nc4ccc5nc(C)n(CC=C)c5c4)nc4ccccc34)ccc21"
test_readout = "growth at 10 µM"
reading = 104

[[record]]
test_smiles = "C=CCn1c(C)nc2ccc(Nc3nc(Nc4ccc(F)cc4)nc4ccccc34)cc21"
test_readout = "growth at 10 µM"
reading = -74

[[record]]
test_smiles = "C=CCn1c(C)nc2cc(Nc3nc(Nc4ccc5nc(C)n(CC=C)c5c4)c4ccccc4n3)ccc21"
test_readout = "growth at 10 µM"
reading = -95.7

[[record]]
test_smiles = "C=CCn1c(C)nc2ccc(Nc3nc(Nc4ncccn4)nc4ccccc34)cc21"
test_readout = "growth at 10 µM"
reading = 104

[[record]]
test_smiles = "C=CCn1c(C)nc2ccc(Nc3nc(Sc4ccc(N)cc4)nc4ccccc34)cc21"
test_readout = "growth at 10 µM"
reading = 124


---

Tested on: SNB-75
Test Details: Cytotoxicity against human SNB75 cells after 48 hrs by SRB assay
Assay type: functional, cell-based
Condition Info: SNB-75, 48 h
pIC50: −log10 of the molar value.
Test Readout: pIC50

[[record]]
test_smiles = "C=CCn1c(C)nc2ccc(Nc3nc(Nc4ccc(F)cc4)nc4ccccc34)cc21"
reading = 5.12


---

Test system: HOP-92
Test Details: Cytotoxicity against human HOP92 cells assessed as growth inhibition at 10 uM after 48 hrs by SRB assay
Type: functional
Condition Info: HOP-92, 48 h, read-out: GI
Below, each of the molecules is paired with its reported inhibition of growth at 10 µM value.
Test Readout: inhibition of growth at 10 µM (%)

[[record]]
test_smiles = "C=CCn1c(C)nc2ccc(Nc3nc(Sc4ccc(N)cc4)nc4ccccc34)cc21"
value_unit = "%"
reading = 30

[[record]]
test_smiles = "C=CCn1c(C)nc2ccc(Nc3nc(NCCO)nc4ccccc34)cc21"
value_unit = "%"
reading = 30

[[record]]
test_smiles = "C=CCn1c(C)nc2ccc(Nc3nc(Nc4ccc5nc(C)n(CC=C)c5c4)c4ccccc4n3)cc21"
value_unit = "%"
reading = 50

[[record]]
test_smiles = "C=CCn1c(C)nc2cc(Nc3nc(NCCO)nc4ccccc34)ccc21"
value_unit = "%"
reading = 40

[[record]]
test_smiles = "C=CCn1c(C)nc2ccc(Nc3nc(Nc4ncccn4)nc4ccccc34)cc21"
value_unit = "%"
reading = 30


---

Test system: COLO 205
Test Details: Cytotoxicity against human COLO205 cells assessed as cell growth at 10^-5 M after 48 hrs by SRB assay
Type: functional
Condition Info: COLO 205, 48 h, read-out: Activity
Test Readout: growth at 10 µM (%)

[[record]]
test_smiles = "C=CCn1c(C)nc2cc(Nc3nc(Nc4ccc5nc(C)n(CC=C)c5c4)c4ccccc4n3)ccc21"
test_readout = "growth at 10 µM"
reading = -100

[[record]]
test_smiles = "C=CCn1c(C)nc2ccc(Nc3nc(Nc4ncccn4)nc4ccccc34)cc21"
test_readout = "growth at 10 µM"
reading = 102

[[record]]
test_smiles = "C=CCn1c(C)nc2cc(Nc3nc(NCCO)nc4ccccc34)ccc21"
test_readout = "growth at 10 µM"
reading = 41.9

[[record]]
test_smiles = "C=CCn1c(C)nc2ccc(Nc3nc(Nc4ccc(F)cc4)nc4ccccc34)cc21"
test_readout = "growth at 10 µM"
reading = -91

[[record]]
test_smiles = "C=CCn1c(C)nc2cc(Nc3nc(Nc4ccc5nc(C)n(CC=C)c5c4)nc4ccccc34)ccc21"
test_readout = "growth at 10 µM"
reading = 108

[[record]]
test_smiles = "C=CCn1c(C)nc2ccc(Nc3nc(Nc4ccc5nc(C)n(CC=C)c5c4)c4ccccc4n3)cc21"
test_readout = "growth at 10 µM"
reading = -100

[[record]]
test_smiles = "C=CCn1c(C)nc2ccc(Nc3nc(NCCO)nc4ccccc34)cc21"
test_readout = "growth at 10 µM"
reading = 106

[[record]]
test_smiles = "C=CCn1c(C)nc2ccc(Nc3nc(Sc4ccc(N)cc4)nc4ccccc34)cc21"
test_readout = "growth at 10 µM"
reading = 121


---

Reported growth at 10 µM values follow for various compounds
System: SK-MEL-2
Test Details: Cytotoxicity against human SK-MEL-2 cells assessed as cell growth at 10^-5 M after 48 hrs by SRB assay
Assay type: functional
Condition Info: SK-MEL-2, 48 h, read-out: Activity
Test Readout: growth at 10 µM (%)

[[record]]
test_smiles = "C=CCn1c(C)nc2ccc(Nc3nc(Nc4ccc(F)cc4)nc4ccccc34)cc21"
reading = 4

[[record]]
test_smiles = "C=CCn1c(C)nc2ccc(Nc3nc(Nc4ccc5nc(C)n(CC=C)c5c4)c4ccccc4n3)cc21"
reading = -88

[[record]]
test_smiles = "C=CCn1c(C)nc2cc(Nc3nc(Nc4ccc5nc(C)n(CC=C)c5c4)c4ccccc4n3)ccc21"
reading = -84.1

[[record]]
test_smiles = "C=CCn1c(C)nc2ccc(Nc3nc(NCCO)nc4ccccc34)cc21"
reading = 127

[[record]]
test_smiles = "C=CCn1c(C)nc2ccc(Nc3nc(Sc4ccc(N)cc4)nc4ccccc34)cc21"
reading = 109

[[record]]
test_smiles = "C=CCn1c(C)nc2cc(Nc3nc(Nc4ccc5nc(C)n(CC=C)c5c4)nc4ccccc34)ccc21"
reading = 121

[[record]]
test_smiles = "C=CCn1c(C)nc2ccc(Nc3nc(Nc4ncccn4)nc4ccccc34)cc21"
reading = 100

[[record]]
test_smiles = "C=CCn1c(C)nc2cc(Nc3nc(NCCO)nc4ccccc34)ccc21"
reading = 102


---

Test Details: Cytotoxicity against human OVCAR4 cells assessed as cell growth at 10^-5 M after 48 hrs by SRB assay
Type: functional
Condition Info: OVCAR-4, 48 h, read-out: Activity
Test Readout: growth at 10 µM

[[record]]
test_smiles = "C=CCn1c(C)nc2ccc(Nc3nc(Nc4ccc5nc(C)n(CC=C)c5c4)c4ccccc4n3)cc21"
reading = "-100%"

[[record]]
test_smiles = "C=CCn1c(C)nc2ccc(Nc3nc(Nc4ncccn4)nc4ccccc34)cc21"
reading = "85.6%"

[[record]]
test_smiles = "C=CCn1c(C)nc2ccc(Nc3nc(Sc4ccc(N)cc4)nc4ccccc34)cc21"
reading = "88.5%"

[[record]]
test_smiles = "C=CCn1c(C)nc2ccc(Nc3nc(NCCO)nc4ccccc34)cc21"
reading = "88.4%"

[[record]]
test_smiles = "C=CCn1c(C)nc2ccc(Nc3nc(Nc4ccc(F)cc4)nc4ccccc34)cc21"
reading = "-26%"

[[record]]
test_smiles = "C=CCn1c(C)nc2cc(Nc3nc(NCCO)nc4ccccc34)ccc21"
reading = "65.2%"

[[record]]
test_smiles = "C=CCn1c(C)nc2cc(Nc3nc(Nc4ccc5nc(C)n(CC=C)c5c4)c4ccccc4n3)ccc21"
reading = "-100%"

[[record]]
test_smiles = "C=CCn1c(C)nc2cc(Nc3nc(Nc4ccc5nc(C)n(CC=C)c5c4)nc4ccccc34)ccc21"
reading = "99.5%"


---

Test Details: Cytotoxicity against human Hs578T cells assessed as cell growth at 10^-5 M after 48 hrs by SRB assay
Assay type: functional
Condition Info: Hs-578T, read-out: Activity
Reported growth at 10 µM values are given for each entry in this list.
Test Readout: growth at 10 µM (%)

[[record]]
test_smiles = "C=CCn1c(C)nc2cc(Nc3nc(Nc4ccc5nc(C)n(CC=C)c5c4)nc4ccccc34)ccc21"
test_readout = "growth at 10 µM"
reading = 100

[[record]]
test_smiles = "C=CCn1c(C)nc2cc(Nc3nc(NCCO)nc4ccccc34)ccc21"
test_readout = "growth at 10 µM"
reading = 77.5

[[record]]
test_smiles = "C=CCn1c(C)nc2ccc(Nc3nc(NCCO)nc4ccccc34)cc21"
test_readout = "growth at 10 µM"
reading = 91.5

[[record]]
test_smiles = "C=CCn1c(C)nc2ccc(Nc3nc(Nc4ccc(F)cc4)nc4ccccc34)cc21"
test_readout = "growth at 10 µM"
reading = 50

[[record]]
test_smiles = "C=CCn1c(C)nc2ccc(Nc3nc(Nc4ncccn4)nc4ccccc34)cc21"
test_readout = "growth at 10 µM"
reading = 87.7

[[record]]
test_smiles = "C=CCn1c(C)nc2ccc(Nc3nc(Sc4ccc(N)cc4)nc4ccccc34)cc21"
test_readout = "growth at 10 µM"
reading = 98.1

[[record]]
test_smiles = "C=CCn1c(C)nc2cc(Nc3nc(Nc4ccc5nc(C)n(CC=C)c5c4)c4ccccc4n3)ccc21"
test_readout = "growth at 10 µM"
reading = -48.1

[[record]]
test_smiles = "C=CCn1c(C)nc2ccc(Nc3nc(Nc4ccc5nc(C)n(CC=C)c5c4)c4ccccc4n3)cc21"
test_readout = "growth at 10 µM"
reading = -52

